tested target: DR4 (DRA*0101/DRB1*0401) (Homo sapiens, UniProt P01903+P01911, A100K/A169T/F76Y/I96L/K127E/L162R/M171V/N62H/P40V/Q125Y/R42H/S133A/S149N/S66Y/V115G/V209L/W38E)
Construct: DRA*01011-181LZFos; DRB1*04011-190LZJunBSP; made in house
method summary: Direct LOCI peptide-MHC-II binding assay, DR4
experimental context: DR4 affinity (nM)
Where no end group is shown, it is not given here.

query sequence	measurement qualifier	Kd (nM)
FLYGALLLA [MBP]	>	5000
IQMLKNGKKIPKVEMS [Murine β2m]	>	5000
HHHHHHIEGRFAALWFRNHFVFGGGTK [6xH Lambda 2(315)]	=	11
GVTYEIDLTNKN [Mycobact leprea]	=	2550
YLFFYRKSV [TERT572Y]	=	1590
PIVQNIQGQMVHQ [HIV]	>	5000
YILLKKILSSRFNQM [Plasmodium Falciparum]	=	94

====

tested target: DRB3*0301 (DRA*0101/DRB3*0301) (Homo sapiens, UniProt P01903+P79483, A169T/A212P/D57E/G115V/L67V/Q178H/R103Q/R40L/Y55F)
Construct: DRA*01011-181LZFos; DRB3*03011-190LZJunBSP; made in house
method summary: Direct LOCI peptide-MHC-II binding assay, DRB3*0301
Here, each record is paired with measured Kd data.
test readout: Kd (nM)

molecule	test readout	measurement qualifier	measured result
CC[C@H](C)[C@H](NC(=O)[C@@H](N)CCCCN)C(=O)N[C@@H](CC(C)C)C(=O)N[C@@H](CCC(=O)O)C(=O)N1CCC[C@H]1C(=O)N[C@@H](Cc1ccccc1)C(=O)N[C@@H](CCCNC(=N)N)C(=O)N[C@@H](CCCCN)C(=O)N[C@@H](Cc1ccc(O)cc1)C(=O)N[C@H](C(=O)N[C@@H](C)C(=O)N[C@@H](Cc1ccccc1)C(=O)N[C@H](C(=O)N[C@H](C(=O)N1CCC[C@H]1C(=O)O)[C@@H](C)CC)[C@@H](C)O)[C@@H](C)O	Kd	=	1020
CC(C)C[C@H](NC(=O)CNC(=O)[C@H](Cc1c[nH]c2ccccc12)NC(=O)CNC(=O)[C@@H](NC(=O)[C@@H]1CCCN1C(=O)[C@@H](NC(=O)[C@H](C)NC(=O)[C@H](CC(=O)O)NC(=O)[C@H](C)NC(=O)[C@H](Cc1ccccc1)NC(=O)[C@@H](NC(=O)[C@H](CCC(N)=O)NC(=O)[C@H](CS)NC(=O)[C@H](CC(C)C)NC(=O)[C@@H](N)Cc1ccc(O)cc1)C(C)C)[C@@H](C)O)[C@@H](C)O)C(=O)O	Kd	=	2060
CC[C@H](C)[C@H](NC(=O)CNC(=O)[C@@H](NC(=O)[C@H](Cc1ccccc1)NC(=O)[C@H](CCCCN)NC(=O)[C@H](CO)NC(=O)[C@H](CC(N)=O)NC(=O)[C@H](C)NC(=O)[C@H](CCCCN)NC(=O)[C@@H](NC(=O)[C@H](Cc1ccc(O)cc1)NC(=O)[C@@H](N)CCC(N)=O)[C@@H](C)CC)[C@@H](C)CC)C(=O)N[C@H](C(=O)N[C@@H](CCC(=O)O)C(=O)O)[C@@H](C)O [Clostridium tetanus]	Kd	=	1
CC[C@H](C)[C@H](N)C(=O)N[C@H](C(=O)N[C@@H](Cc1ccccc1)C(=O)N[C@@H](CCSC)C(=O)N[C@@H](Cc1c[nH]c2ccccc12)C(=O)N[C@@H](C)C(=O)N[C@H](C(=O)N[C@@H](Cc1c[nH]cn1)C(=O)N[C@@H](Cc1c[nH]cn1)C(=O)O)[C@@H](C)CC)C(C)C [Flu HA1194-202]	Kd	>	5000
